- Tested on: OVCAR-5 complex spheroid (HUVEC/MSC), viability % T/C
- PROTOCOL NOTES: Anticancer human tumor OVCAR-5 cell line growth inhibition [Asc]; active = viability on the fitted dose curve at most 10% of control; inactive = the rest;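 also: spheroids exposed to agents for 7 days before readout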
- CONDITION NOTES: second compound 0.316 µM; first compound 1 µM
Outcome codes: Y for active, N for inactive

{"columns": ["COMPOUND", "ANSWER LABEL"],
 "data": [
  ["COc1c(OCCCN2CCOCC2)ccc2c3n(c(=NC(=O)c4cnc(N)nc4)nc12)CCN3 + Cc1c(S(C)(=O)=O)c(-c2cc(F)cc(N3CCN(c4ccc(NS(=O)(=O)c5ccc(NC(CCN6CCC(C(=O)OCCCP(=O)(O)O)CC6)CSc6ccccc6)c(S(=O)(=O)C(F)(F)F)c5)cc4)CC3)c2)c(-c2ccc(Cl)cc2)n1C(C)C", "Y"],
  ["O=C(c1ccc(F)c(F)c1Nc1ccc(I)cc1F)N1CC(O)([C@@H]2CCCCN2)C1 + Cc1c(S(C)(=O)=O)c(-c2cc(F)cc(N3CCN(c4ccc(NS(=O)(=O)c5ccc(NC(CCN6CCC(C(=O)OCCCP(=O)(O)O)CC6)CSc6ccccc6)c(S(=O)(=O)C(F)(F)F)c5)cc4)CC3)c2)c(-c2ccc(Cl)cc2)n1C(C)C", "N"],
  ["CCN1CCN(Cc2ccc(Nc3ncc(F)c(-c4cc(F)c5nc(C)n(C(C)C)c5c4)n3)nc2)CC1 + CNC(C)C(=O)NC1CN(S(=O)(=O)c2cccc(S(=O)(=O)N3CCC4CCC(C(=O)NC(c5ccccc5)c5ccccc5)N4C(=O)C(NC(=O)C(C)NC)C3)c2)CCC2CCC(C(=O)NC(c3ccccc3)c3ccccc3)N2C1=O", "N"],
  ["C#Cc1c(F)ccc2cc(O)cc(-c3ncc4c(N5CC6CCC(C5)N6)nc(OCC56CCCN5CC(F)C6)nc4c3F)c12 (configuration not stated) + CNC(C)C(=O)NC1CN(S(=O)(=O)c2cccc(S(=O)(=O)N3CCC4CCC(C(=O)NC(c5ccccc5)c5ccccc5)N4C(=O)C(NC(=O)C(C)NC)C3)c2)CCC2CCC(C(=O)NC(c3ccccc3)c3ccccc3)N2C1=O", "N"],
  ["C=C(F)C(=O)N1CCN(c2nc(OCC3CCCN3C)nc3c2CCN(c2cccc4cccc(Cl)c24)C3)CC1CC#N (configuration not stated) + Cc1c(S(C)(=O)=O)c(-c2cc(F)cc(N3CCN(c4ccc(NS(=O)(=O)c5ccc(NC(CCN6CCC(C(=O)OCCCP(=O)(O)O)CC6)CSc6ccccc6)c(S(=O)(=O)C(F)(F)F)c5)cc4)CC3)c2)c(-c2ccc(Cl)cc2)n1C(C)C", "N"],
  ["C=CC(=O)N1CCN(c2nc(=O)n(-c3c(C)ccnc3C(C)C)c3nc(-c4c(O)cccc4F)c(F)cc23)C(C)C1 (configuration not stated) + Cc1c(S(C)(=O)=O)c(-c2cc(F)cc(N3CCN(c4ccc(NS(=O)(=O)c5ccc(NC(CCN6CCC(C(=O)OCCCP(=O)(O)O)CC6)CSc6ccccc6)c(S(=O)(=O)C(F)(F)F)c5)cc4)CC3)c2)c(-c2ccc(Cl)cc2)n1C(C)C", "N"],
  ["O=C(c1ccc(F)c(F)c1Nc1ccc(I)cc1F)N1CC(O)([C@@H]2CCCCN2)C1 + CNC(C)C(=O)NC1CN(S(=O)(=O)c2cccc(S(=O)(=O)N3CCC4CCC(C(=O)NC(c5ccccc5)c5ccccc5)N4C(=O)C(NC(=O)C(C)NC)C3)c2)CCC2CCC(C(=O)NC(c3ccccc3)c3ccccc3)N2C1=O", "N"]
]}

Attribution: PubChem BioAssay AID1963436
